Hey, just so you know, these numbers are from paper PMC10052977.

# Test system: human red blood cells
# TEST DETAILS: Hemolytic assay
# Format: cell-based
# ASSAY CONDITIONS: mean (n = 2)
Consider the following compounds; for each one, report its Hemolysis (HC10, concentration at 10% hemolytic activity).

O=C(CCc1ccccc1)NCCCNCCCCCCCCCCNCCCNC(=O)CCc1ccccc1.O=C(O)C(F)(F)F.O=C(O)C(F)(F)F [Compound 13e] has a reported Hemolysis (HC10, concentration at 10% hemolytic activity) of >41.1 µM

Please look at the items below and tell me Hemolysis (HC10, concentration at 10% hemolytic activity) for each one, in order.
1. O=C(CCC(=O)NCCC(c1ccccc1)c1ccccc1)NCCCNCCCCCCCNCCCNC(=O)CCC(=O)NCCC(c1ccccc1)c1ccccc1.O=C(O)C(F)(F)F.O=C(O)C(F)(F)F [Compound 16c]
2. O=C(CC(c1ccccc1)c1ccccc1)NCCCNCCCCCCCCNCCCNC(=O)CC(c1ccccc1)c1ccccc1.O=C(O)C(F)(F)F.O=C(O)C(F)(F)F [Compound 15d]
3. O=C(CC(c1ccccc1)(c1ccccc1)c1ccccc1)NCCCNCCCCCCCCCCNCCCNC(=O)CC(c1ccccc1)(c1ccccc1)c1ccccc1.O=C(O)C(F)(F)F.O=C(O)C(F)(F)F [Compound 18e]
4. O=C(CCc1ccccc1)NCCCNCCCCCCNCCCNC(=O)CCc1ccccc1.O=C(O)C(F)(F)F.O=C(O)C(F)(F)F [Compound 13b]
5. O=C(CCc1ccccc1)NCCCNCCCCCCCNCCCNC(=O)CCc1ccccc1.O=C(O)C(F)(F)F.O=C(O)C(F)(F)F [Compound 13c]
6. O=C(CCC(=O)NCCCc1ccccc1)NCCCNCCCCNCCCNC(=O)CCC(=O)NCCCc1ccccc1.O=C(O)C(F)(F)F.O=C(O)C(F)(F)F [Compound 14a]

1: >30.2 µM; 2: >35.4 µM; 3: ≤0.231 µM; 4: >44.3 µM; 5: >43.4 µM; 6: >37 µM

O=C(CC(c1ccccc1)c1ccccc1)NCCCNCCCCCCCNCCCNC(=O)CC(c1ccccc1)c1ccccc1.O=C(O)C(F)(F)F.O=C(O)C(F)(F)F [Compound 15c] has a reported Hemolysis (HC10, concentration at 10% hemolytic activity) of >36.0 µM
